biological target: plasma purified human complement protein C3 (human) (UniProt P01024); assay: cell-based or functional assay
Sequence (P01024 23-667, chain 1 of 2): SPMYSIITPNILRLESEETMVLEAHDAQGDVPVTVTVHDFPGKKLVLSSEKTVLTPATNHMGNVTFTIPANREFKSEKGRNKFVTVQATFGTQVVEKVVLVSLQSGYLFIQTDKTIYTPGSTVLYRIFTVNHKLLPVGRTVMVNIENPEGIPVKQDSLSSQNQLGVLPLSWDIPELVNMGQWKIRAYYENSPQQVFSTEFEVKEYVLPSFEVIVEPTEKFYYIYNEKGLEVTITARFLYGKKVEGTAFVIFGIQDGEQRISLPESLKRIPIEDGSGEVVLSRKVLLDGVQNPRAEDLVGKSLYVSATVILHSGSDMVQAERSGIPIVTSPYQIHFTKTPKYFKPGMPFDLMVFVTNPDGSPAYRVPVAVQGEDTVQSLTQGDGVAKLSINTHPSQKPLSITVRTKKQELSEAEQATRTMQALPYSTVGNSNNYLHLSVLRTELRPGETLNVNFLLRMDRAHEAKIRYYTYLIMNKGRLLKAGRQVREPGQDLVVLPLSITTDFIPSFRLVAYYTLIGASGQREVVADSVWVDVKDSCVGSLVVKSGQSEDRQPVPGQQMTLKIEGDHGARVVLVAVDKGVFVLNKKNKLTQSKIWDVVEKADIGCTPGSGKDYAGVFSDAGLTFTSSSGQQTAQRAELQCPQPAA
Sequence (P01024 672-1663, chain 2 of 2): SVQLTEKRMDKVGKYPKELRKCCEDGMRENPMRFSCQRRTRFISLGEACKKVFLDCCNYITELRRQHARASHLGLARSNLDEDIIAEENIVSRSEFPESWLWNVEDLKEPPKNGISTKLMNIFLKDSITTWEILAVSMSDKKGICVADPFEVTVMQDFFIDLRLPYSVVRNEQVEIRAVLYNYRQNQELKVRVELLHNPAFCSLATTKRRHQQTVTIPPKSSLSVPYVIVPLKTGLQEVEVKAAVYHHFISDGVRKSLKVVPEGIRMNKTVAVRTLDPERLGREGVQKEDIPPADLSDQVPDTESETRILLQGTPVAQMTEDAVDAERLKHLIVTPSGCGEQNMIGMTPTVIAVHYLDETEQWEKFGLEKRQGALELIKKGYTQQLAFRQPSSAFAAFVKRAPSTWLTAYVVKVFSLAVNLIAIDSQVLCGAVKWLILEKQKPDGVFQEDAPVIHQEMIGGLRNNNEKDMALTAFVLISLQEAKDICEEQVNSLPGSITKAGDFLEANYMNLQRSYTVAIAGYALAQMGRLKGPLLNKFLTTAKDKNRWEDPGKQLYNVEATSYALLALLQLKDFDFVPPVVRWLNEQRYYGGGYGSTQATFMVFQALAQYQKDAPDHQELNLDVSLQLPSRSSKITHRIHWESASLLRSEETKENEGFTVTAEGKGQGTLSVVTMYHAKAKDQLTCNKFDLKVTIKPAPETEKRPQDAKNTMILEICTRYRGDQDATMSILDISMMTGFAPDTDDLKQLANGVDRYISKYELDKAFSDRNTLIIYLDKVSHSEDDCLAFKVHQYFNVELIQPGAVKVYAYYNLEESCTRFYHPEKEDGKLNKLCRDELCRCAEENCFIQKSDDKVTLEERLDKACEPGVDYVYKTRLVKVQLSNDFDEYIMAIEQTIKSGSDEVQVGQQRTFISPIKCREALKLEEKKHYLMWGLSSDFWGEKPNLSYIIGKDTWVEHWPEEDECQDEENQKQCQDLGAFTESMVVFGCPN
Threshold 40 nM. EC50 of hC3 cleavage below it: YES. EC50 of hC3 cleavage at it or above: NO.

binder	class
MTSP-1 ins97aV/F97D/T98P/F99L/C122S/Q175L/Q192E (enzyme) VVGGTDADEGEWPWQVSLHALGQGHICGASLISPNWLVSAAHCYIDDRGFRYSDPTQWTAFLGLHDQSQRSAPGVQERRLKRIISHPFFNDDVPLDYDIALLELEKPAEYSSMVRPISLPDASHVFPAGKAIWVTGWGHTQYGGTGALILQKGEIRVINQTTCENLLPQLITPRMMCVGFLSGGVDSCEGDSGGPLSSVEADGRIFQAGVVSWGDGCAQRNKPGVYTRLPLFRDWIKENTGV	NO
MTSP-1 Q38V/I41S/D60bT/F60eT/F97D/ins97aV/T98P/F99L/C122S/G151N/Q175H/Q192S (enzyme) VVGGTDADEGEWPWQVSLHALGVGHSCGASLISPNWLVSAAHCYIDTRGTRYSDPTQWTAFLGLHDQSQRSAPGVQERRLKRIISHPFFNDDVPLDYDIALLELEKPAEYSSMVRPISLPDASHVFPAGKAIWVTGWGHTQYGGTNALILQKGEIRVINQTTCENLLPQHITPRMMCVGFLSGGVDSCSGDSGGPLSSVEADGRIFQAGVVSWGDGCAQRNKPGVYTRLPLFRDWIKENTGV	YES
MTSP-1 I41R/ins97aE/F97T/T98G/F99L/C122S/G151D/Q175T/Q192E (enzyme) VVGGTDADEGEWPWQVSLHALGQGHRCGASLISPNWLVSAAHCYIDDRGFRYSDPTQWTAFLGLHDQSQRSAPGVQERRLKRIISHPFFNDTEGLDYDIALLELEKPAEYSSMVRPISLPDASHVFPAGKAIWVTGWGHTQYGGTDALILQKGEIRVINQTTCENLLPQTITPRMMCVGFLSGGVDSCEGDSGGPLSSVEADGRIFQAGVVSWGDGCAQRNKPGVYTRLPLFRDWIKENTGV	NO
MTSP-1 Q38K/I41T/ins97aE/F97T/T98G/F99L/C122S/Q175L/Q192A (enzyme) VVGGTDADEGEWPWQVSLHALGKGHTCGASLISPNWLVSAAHCYIDDRGFRYSDPTQWTAFLGLHDQSQRSAPGVQERRLKRIISHPFFNDTEGLDYDIALLELEKPAEYSSMVRPISLPDASHVFPAGKAIWVTGWGHTQYGGTGALILQKGEIRVINQTTCENLLPQLITPRMMCVGFLSGGVDSCAGDSGGPLSSVEADGRIFQAGVVSWGDGCAQRNKPGVYTRLPLFRDWIKENTGV	YES
MTSP-1 H40R/I41H/F97T/ins97aE/T98G/F99L/C122S/Q175L/Q192G (enzyme) VVGGTDADEGEWPWQVSLHALGQGRHCGASLISPNWLVSAAHCYIDDRGFRYSDPTQWTAFLGLHDQSQRSAPGVQERRLKRIISHPFFNDTEGLDYDIALLELEKPAEYSSMVRPISLPDASHVFPAGKAIWVTGWGHTQYGGTGALILQKGEIRVINQTTCENLLPQLITPRMMCVGFLSGGVDSCGGDSGGPLSSVEADGRIFQAGVVSWGDGCAQRNKPGVYTRLPLFRDWIKENTGV	NO
MTSP-1 H40R/I41H/F97D/F99L/C122S/Q175M/D217N/K224R (enzyme) VVGGTDADEGEWPWQVSLHALGQGRHCGASLISPNWLVSAAHCYIDDRGFRYSDPTQWTAFLGLHDQSQRSAPGVQERRLKRIISHPFFNDDTLDYDIALLELEKPAEYSSMVRPISLPDASHVFPAGKAIWVTGWGHTQYGGTGALILQKGEIRVINQTTCENLLPQMITPRMMCVGFLSGGVDSCQGDSGGPLSSVEADGRIFQAGVVSWGNGCAQRNRPGVYTRLPLFRDWIKENTGV	NO
MTSP-1 I41E/F99L/C122S/G151N/Q192T (enzyme) VVGGTDADEGEWPWQVSLHALGQGHECGASLISPNWLVSAAHCYIDDRGFRYSDPTQWTAFLGLHDQSQRSAPGVQERRLKRIISHPFFNDFTLDYDIALLELEKPAEYSSMVRPISLPDASHVFPAGKAIWVTGWGHTQYGGTNALILQKGEIRVINQTTCENLLPQQITPRMMCVGFLSGGVDSCTGDSGGPLSSVEADGRIFQAGVVSWGDGCAQRNKPGVYTRLPLFRDWIKENTGV	NO
MTSP-1 Q38E/I41S/D60bV/F60eK/F97T/ins97aE/T98G/F99L/C122S/Q175L/Q192I (enzyme) VVGGTDADEGEWPWQVSLHALGEGHSCGASLISPNWLVSAAHCYIDVRGKRYSDPTQWTAFLGLHDQSQRSAPGVQERRLKRIISHPFFNDTEGLDYDIALLELEKPAEYSSMVRPISLPDASHVFPAGKAIWVTGWGHTQYGGTGALILQKGEIRVINQTTCENLLPQLITPRMMCVGFLSGGVDSCIGDSGGPLSSVEADGRIFQAGVVSWGDGCAQRNKPGVYTRLPLFRDWIKENTGV	YES
MTSP-1 Q38H/I41A/D60bT/F60eK/Y60gW/ins97aE/F97T/T98G/F99L/C122S/G151H/Q175L/Q192D (enzyme) VVGGTDADEGEWPWQVSLHALGHGHACGASLISPNWLVSAAHCYIDTRGKRWSDPTQWTAFLGLHDQSQRSAPGVQERRLKRIISHPFFNDTEGLDYDIALLELEKPAEYSSMVRPISLPDASHVFPAGKAIWVTGWGHTQYGGTHALILQKGEIRVINQTTCENLLPQLITPRMMCVGFLSGGVDSCDGDSGGPLSSVEADGRIFQAGVVSWGDGCAQRNKPGVYTRLPLFRDWIKENTGV	YES
MTSP-1 H40P/I41R/F99L/C122S/Q192G (enzyme) VVGGTDADEGEWPWQVSLHALGQGPRCGASLISPNWLVSAAHCYIDDRGFRYSDPTQWTAFLGLHDQSQRSAPGVQERRLKRIISHPFFNDFTLDYDIALLELEKPAEYSSMVRPISLPDASHVFPAGKAIWVTGWGHTQYGGTGALILQKGEIRVINQTTCENLLPQQITPRMMCVGFLSGGVDSCGGDSGGPLSSVEADGRIFQAGVVSWGDGCAQRNKPGVYTRLPLFRDWIKENTGV	NO
